experiment: Oral bioavailability in BALB/c mouse relative to control; assay type: ADME, organism-based; conditions: in vivo
measured_attribute: bioavailability (%)
Write it as a number; the unit % goes unstated.

Recorded bioavailability for COc1cc(/C=C/c2ccc(O)cc2)cc(OC)c1 , please?
80

* * *

assay: Inhibition of NDM-1 (unknown origin) using nitrocefin as substrate; design: species or system Homo sapiens
measured_attribute: pIC50
Scale: negative log10 of molar concentration, which is what pIC50 denotes.

Record request: pIC50 value, item N[C@@H](CN[C@@H](CN[C@@H](CC(=O)O)C(=O)O)C(=O)O)C(=O)O
5.40

* * *

assay: Inhibition of NDM-1 (unknown origin) measured after 10 mins; design: species or system Homo sapiens
measured_attribute: IC50 (µM)
Provide the reading as a plain figure in µM.

# get_value(readout='IC50', item= O=C1N(Cc2cccc3ccccc23)c2ccccc2C12NN=C(c1ccccc1)S2 (stereo unspecified) )
6.6

* * *

assay: Binding affinity to NDM-1 (unknown origin) assessed as kinetic constant using cefazolin as substrate preincubated for 60 sec followed by cefazolin addition after 60 sec by isothermal titration calorimetric assay; design: species or system Homo sapiens
measured_attribute: Ki (µM)
The reply should be a number in µM, with the unit left off.

State the recorded Ki for this entry: O=C(O)C(=O)CBr [BROMOPYRUVATE]
3.8

* * *

assay: Inhibition of NDM-1 (unknown origin) expressed in Escherichia coli; parameters: species or system Homo sapiens
Each entry below carries its reported IC50.
Give the value in µM but do not write µM after it.

Here are 3 molecules together with their reported answers.
Consider the molecule shown here: CC1(C)S[C@H]2CS[C@H](CS)N2[C@@H]1C(=O)O What is its recorded IC50?
200

Which IC50 value belongs to O=C(O)[C@@H]1SC[C@H]2CS[C@H](CS)N21 ?
23

Requested read-out: IC50. Entry: O=C(O)[C@H]1SC[C@@H]2CS[C@@H](CS)N21
109

Others:
So what's the measured IC50 for this one? CC1(C)S[C@@H]2CS[C@@H](CS)N2[C@H]1C(=O)O
180

* * *

assay: Binding affinity to NDM-1 (unknown origin) assessed as inhibition constant using meropenem as substrate incubated for 10 mins; parameters: species or system Homo sapiens
measured_attribute: Ki (nM)
Number in nM, nothing else.

Any idea what its Ki is? The molecule is CCCCCCCCCCCC1=C(O)C(=O)C=C(O)C1=O [EMBELIN]
190
